Data provenance: a melting point compilation (Tetko et al.; mined from patent text by program, amines drawn as free bases though some values may be those of a salt)

Would you kindly list melting point for each of these compounds?

Observe how each entry below is paired with its result.
[
  {
    "compound": "c1ccc(-c2cn3c(n2)Cc2ccccc2C3)cc1",
    "reported": "195 to 197 °C"
  },
  {
    "compound": "O=c1cc(Sc2ccc(O)cc2)oc2cc(O)cc(O)c12",
    "reported": "249 to 251 °C"
  },
  {
    "compound": "O=C(N[C@@H](Cc1ccccc1)C(=O)O)c1cnccn1",
    "reported": "166 to 169 °C"
  },
  {
    "compound": "COc1ccc2c(=O)cc(SC)sc2c1",
    "reported": "133 to 135 °C"
  },
  {
    "compound": "CC(C)NC(=O)c1ccc(-c2ccc3nnn(Cc4ccc5ncccc5c4)c3n2)cc1",
    "reported": "181 to 183 °C"
  },
  {
    "compound": "O=[N+]([O-])c1ccc(C(c2cccs2)C(Cc2cccs2)N2CCC(Cc3ccccc3)CC2)cc1 (stereo unspecified)",
    "reported": "124 to 126 °C"
  },
  {
    "compound": "CCCCc1nc(SC)c(C(=O)O)n1Cc1ccc(-c2ccccc2C(=O)O)cc1",
    "reported": "220 °C"
  },
  {
    "compound": "CC(C)N1CCC(Oc2ccc3[nH]ncc3c2)CC1",
    "reported": "125 to 126 °C"
  }
]

Okay, here is my list. What is melting point for each of these?
1. CCc1cn(C2CCC(CO)O2)c(=O)[nH]c1=O (stereo unspecified)
2. CC(C)(O)c1cccc(-c2ccc3nc(-c4ccc(Cl)cc4)c(Cl)n3c2)c1

*A*
["109 to 113 °C", "172 to 173 °C"]

Okay, here is my list. What is melting point for each of these?
1. CCCCCCCCCCC(Oc1ccc(C2=CCCCCCC2)cc1)C(=O)O (stereo unspecified)
2. CCC(Cn1cncn1)(C(=O)O)c1ccc(Cl)cc1Cl (stereo unspecified)
3. OCC(Nc1ncnc2nc[nH]c12)c1ccccc1 (racemic)
4. O=c1c(CCCc2ccncc2)cc2cccnc2n1-c1ccc2nonc2c1

*A*
45 to 48 °C
206 to 208 °C
130 to 138 °C
192 to 194 °C

Okay, here is my list. What is melting point for each of these?
1. CSc1ccc(Cl)c(C(=O)Nc2ccc(-n3nc(C4CC4)cc3C3CC3)cc2)c1
2. O=C(c1ccc(Cl)nc1)N1Cc2cccn2Cc2ccccc21
3. O=C(O)CCC1CC(c2ccccc2)CCC1O (stereo unspecified)
4. Cc1cccc(NC(=O)NCC(=O)Nc2ccccc2C(=O)c2cccs2)c1
5. CCCCc1nc2cc(Cl)cc(C(=O)O)c2n1Cc1ccc(-c2ccccc2-c2nnn[nH]2)cc1
6. CC(CCC(O)C(C)(C)O)C1CCC2C3CC=C4CC(O)CC(O)C4(C)C3CCC12C (stereo unspecified)

*A*
["168 to 173 °C", "165 to 167 °C", "154 to 155 °C", "208 to 210 °C", "232 to 234 °C", "198 to 200 °C"]

*Q* What value of measured melting point is listed for O=Cc1ccnc2c(NC(=O)c3c(Cl)cccc3Cl)cccc12 ?
*A* 239 °C
